Values were extracted from PubChem BioAssay AID504490.

Tested on: beta-arrestin 1 C-terminal peptide binding to AP2 beta2-adaptin appendage (human)
ASSAY_SUMMARY: inhibitors of beta-arrestin/AP2 binding, primary screen, biochemical, GPCR trafficking, flow cytometry (AID 504490);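 further: plate controls were DMSO wells for no effect and 5 µM unlabelled arrestin peptide for full effect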
RUN_CONDITIONS: FITC-arrestin peptide / GST-AP2 beads, at 10 µM, stronger effect = higher value, AP2 beta2 appendage carries R879A mutation
In all, about 340,000 compounds went through this assay and about 1,100 (0.32%) were called active. The full list was thinned out, with actives kept by preference.
Exercise: for every item that follows, state its recorded inhibition.
Answers are plain numbers, in %.

COMPOUND: Cc1ccc(CC2C(=O)N(c3ccc(F)cc3)C(=O)C2C)cc1 (stereo unspecified)
ASSAYED_TARGET: beta-arrestin 1 C-terminal peptide binding to AP2 beta2-adaptin appendage (human)
MEASURE_NAME: inhibition
NUMERIC_READOUT: -10.9
//
COMPOUND: C=CCO/N=C(\C)c1c(O)c(C)c(-c2ccccc2)n(-c2ccccc2)c1=O
ASSAYED_TARGET: beta-arrestin 1 C-terminal peptide binding to AP2 beta2-adaptin appendage (human)
MEASURE_NAME: inhibition
NUMERIC_READOUT: 32.4
//
COMPOUND: O=CN1CCN(C(=O)c2ccc3c(c2)OCO3)CC1
ASSAYED_TARGET: beta-arrestin 1 C-terminal peptide binding to AP2 beta2-adaptin appendage (human)
MEASURE_NAME: inhibition
NUMERIC_READOUT: -7.77
//
COMPOUND: COc1cc2c(cc1OC)CN(C(=O)c1cc(=O)c3ccccc3o1)CC2
ASSAYED_TARGET: beta-arrestin 1 C-terminal peptide binding to AP2 beta2-adaptin appendage (human)
MEASURE_NAME: inhibition
NUMERIC_READOUT: 82.5
//
COMPOUND: Cc1noc(C)c1CSc1nnc2ccc3ccccc3n12
ASSAYED_TARGET: beta-arrestin 1 C-terminal peptide binding to AP2 beta2-adaptin appendage (human)
MEASURE_NAME: inhibition
NUMERIC_READOUT: -1.44

Notebook: Cc1nc2c(ncn2-c2ccccc2)c(=O)n1NC(=O)CN1CCCC1 , inhibition read as -8.96

---

System: beta-arrestin 1 C-terminal peptide binding to AP2 beta2-adaptin appendage (human)
ASSAY_SUMMARY: inhibitors of beta-arrestin/AP2 binding, primary screen, biochemical, GPCR trafficking, flow cytometry (AID 504490);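 further: plate controls were DMSO wells for no effect and 5 µM unlabelled arrestin peptide for full effect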
RUN_CONDITIONS: FITC-arrestin peptide / GST-AP2 beads, at 10 µM, AP2 beta2 appendage carries R879A mutation
The campaign covered roughly 340,000 compounds. About 1,100 (0.32%) were called active.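 How the source made its calls: active means inhibition above a set limit, near 3 SD of compounds lacking own fluorescence (cut at about 54% in these data); inactive means the rest.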 What follows is part of a selection rich in actives, with near analogues and random picks from the rest.
The categories you may choose from are 1 for active, -1 for inactive

Here's what some known entries look like.
COMPOUND: N#Cc1c(N)n(CCOC(=O)c2ccc(Cl)cc2)c2nc3ccccc3nc12
GROUP_LABEL: -1
//
COMPOUND: CCc1noc(C)c1C(=O)N1CCCC(N2CCN(c3ccc(F)cc3)CC2)C1 (centres undefined)
GROUP_LABEL: -1
//
COMPOUND: CCN(CC)Cc1c(C(=O)N/N=C/c2cccc(OCc3ccc(F)cc3)c2)nnn1-c1nonc1N
GROUP_LABEL: -1
//
COMPOUND: COCCNC(=O)Nc1ccc2nc(-c3ccco3)c(-c3ccco3)nc2c1
GROUP_LABEL: 1
//
COMPOUND: COc1ccc(NC(=O)c2sc(N3CCOCC3)nc2-c2ccccc2)c(OC)c1
GROUP_LABEL: -1
//
COMPOUND: CC(C)(C)c1ccc(C(=O)NCCn2c(N)c(C#N)c3nc4ccccc4nc32)cc1
GROUP_LABEL: 1
//
COMPOUND: CC(=O)c1cccc(NC(=O)[C@@H](NC(N)=O)C(C)C)c1
GROUP_LABEL: -1
//
COMPOUND: CC(NC(=O)c1cc2cc(Cl)ccc2oc1=N)c1ccccc1 (centres undefined)
GROUP_LABEL: 1
//
COMPOUND: Cc1ccc(S(=O)(=O)N2CCN(C(=O)Cn3c(=O)cnc4ccccc43)CC2)c(C)c1
GROUP_LABEL: -1
//
COMPOUND: O=C(Nc1nc(-c2ccco2)c(-c2ccco2)s1)c1ccco1
GROUP_LABEL: -1

Q. Record request — test call for CC(NC(=O)C(=O)N/N=C/c1ccc(Cl)cc1)c1ccccc1 (centres undefined)
A. -1

Q. Outcome logged for COCC(C)OC(=O)c1c(N)n(CCCN2CCOCC2)c2nc3ccccc3nc12 (centres undefined) in this assay:
A. -1

Q. Please share the test call associated with Cc1ccc(C2(C)NC(=O)N(CC(=O)N3CC(=O)Nc4ccccc43)C2=O)cc1 (centres undefined) .
A. -1

Q. Each compound tested received a call. Report the one for COc1ccc(-c2nnc(-c3ccc4ccccc4c3)o2)cc1 .
A. -1

Q. Called result for COc1cccc(C(=O)n2ccc(-c3cccs3)n2)c1
A. -1

Q. Identify the outcome logged in this assay for the compound shown: CCc1nnc(NC(=O)CCC(=O)N2CCN(c3cc(C)ccc3C)CC2)s1
A. -1

Q. Outcome? CCc1ccccc1OCC(=O)Nc1ccc(C)c(S(=O)(=O)N2CCCCCC2)c1
A. -1
